Target: human Pim-1 (Homo sapiens (Human), UniProt P11309)
Sequence (P11309 whole entry): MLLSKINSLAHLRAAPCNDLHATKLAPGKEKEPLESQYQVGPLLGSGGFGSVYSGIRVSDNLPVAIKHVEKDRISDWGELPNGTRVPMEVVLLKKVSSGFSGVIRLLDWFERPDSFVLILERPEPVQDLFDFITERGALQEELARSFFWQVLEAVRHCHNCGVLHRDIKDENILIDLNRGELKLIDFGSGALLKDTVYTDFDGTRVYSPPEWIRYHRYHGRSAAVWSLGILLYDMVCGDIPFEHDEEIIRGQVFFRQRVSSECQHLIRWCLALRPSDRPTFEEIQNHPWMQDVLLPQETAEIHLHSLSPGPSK
Assay: biochemical
Assay type: biochemical
Settings: Ki converted from IC50; purified human Pim-1, Pim2tide substrate, ADP-Glo; read-out: hPim1 Ki
In this section we review reported Ki values for a set of molecules.
REPORTED_ENDPOINT: Ki (pM)

{"columns": ["MOLECULE", "ASSAY_VALUE"],
 "data": [
  ["O=C1NC2(CC2)CN(CC(F)(F)C2CCS(=O)(=O)CC2)c2c1oc1ccc(C(F)(F)F)cc21", 98.2],
  ["N#CC1(CCO)CCOC(C(F)(F)CN2CCNC(=O)c3oc4ccc(C(F)(F)F)cc4c32)C1 (centres unmarked)", 79.3],
  ["CC(C)(O)C1(O)CCOC(C(F)(F)CN2CCNC(=O)c3oc4ccc(C(F)(F)F)cc4c32)C1 (centres unmarked)", 57.7],
  ["COC[C@]1(OC)CC[C@@H](CCN2CCNC(=O)c3oc4ccc(C(F)(F)F)cc4c32)CC1", 1250],
  ["O=C1NCCN(CCC2COCC(CO)O2)c2c1oc1ccc(C(F)(F)F)cc21 (racemic) [Example 132]", 3590],
  ["O=C1NCCN(CC(F)(F)[C@H]2CO[C@H](CO)CO2)c2c1oc1ccc(C(F)(F)F)cc21", 44.3],
  ["CS(=O)(=O)CC1COCC(CCN2CCNC(=O)c3oc4ccc(C(F)(F)F)cc4c32)O1 (racemic) [Example 136]", 16000],
  ["O=C1NCCN(CCC2CCC(O)(CF)CC2)c2c1oc1ccc(C(F)(F)F)cc21 (centres unmarked)", 801]
]}

====

In this section we review reported Ki values for a set of compounds.
Target: human Pim-1 (Homo sapiens (Human), UniProt P11309)
Test: biochemical
Type: biochemical
Details: hPim1 Ki (nM), Ki converted from IC50; purified human Pim-1, Pim2tide substrate, ADP-Glo
REPORTED_ENDPOINT: Ki

{"columns": ["COMPOUND", "ASSAY_VALUE"],
 "data": [
  ["CC1(O)CCOC(C(F)(F)CN2CCNC(=O)c3oc4ccc(C(F)(F)F)cc4c32)C1 (racemic) [Example 11]", "0.0596 nM"],
  ["[2H]C1(O)CCC(CCN2CCNC(=O)c3oc4ccc(C(F)(F)F)cc4c32)CC1 (relative stereo) [Example 91]", "0.198 nM"],
  ["O=C1NCCN(CC(F)(F)C2COCCO2)c2c1oc1ccc(C(F)(F)F)cc21 (racemic) [Example 56]", "0.0723 nM"],
  ["O=C1NC2(CC2)CN(CCC2CCC(O)CC2)c2c1oc1ccc(C(F)(F)F)cc21 (stereo not shown) [Example 125]", "0.0592 nM"],
  ["O=C1NCCN(CC(F)(F)C2CC(CO)CCO2)c2c1oc1ccc(C(F)(F)F)cc21 (single isomer, unassigned) [Example 15]", "0.0289 nM"],
  ["O=C1NCCN(CCC2CCC(O)CC2)c2c1oc1ccc(C(F)(F)F)cc21 (stereo not shown) [Example 60]", "0.273 nM"],
  ["O=C1NCCN(CC(F)(F)C2CC(CO)CCO2)c2c1oc1ccc(C(F)(F)F)cc21 (single isomer, unassigned) [Example 14]", "0.0334 nM"]
]}

====

Molecular target: UniProtKB P11309
Assay: biochemical
Type: biochemical
Settings: Ki converted from IC50; purified human Pim-1, Pim2tide substrate, ADP-Glo; read-out: hPim1 Ki
pKi: −log10 of the molar value.
pKi of 10 or higher: class 1. Under 10: class 0.

{"columns": ["COMPOUND", "ASSAY_SYSTEM", "GROUP_LABEL"],
 "data": [
  ["O=C1NCCN(CC[C@@H]2CO[C@H](CO)CO2)c2c1oc1ccc(C(F)(F)F)cc21", "UniProtKB P11309", "class 0"],
  ["O=C1NCCN(CCC2COCC(CF)O2)c2c1oc1ccc(C(F)(F)F)cc21 (racemic) [Example 135]", "UniProtKB P11309", "class 0"],
  ["CS(=O)(=O)C[C@H]1CO[C@@H](CCN2CCNC(=O)c3oc4ccc(C(F)(F)F)cc4c32)CO1 (racemic)", "UniProtKB P11309", "class 0"],
  ["O=C1NC2(CC2)CN(CC(F)(F)[C@H]2CC[C@H](O)CC2)c2c1oc1ccc(C(F)(F)F)cc21", "UniProtKB P11309", "class 1"],
  ["O=C1CCC(F)(F)C(C(F)(F)CN2CCNC(=O)c3oc4ccc(C(F)(F)F)cc4c32)C1 (racemic)", "UniProtKB P11309", "class 1"],
  ["O=C1NCCN(CCC2CCC(O)(C3(O)CC3)CC2)c2c1oc1ccc(C(F)(F)F)cc21 (stereo not shown)", "UniProtKB P11309", "class 1"],
  ["O=C1NCCN(CC[C@H]2CO[C@H](CO)CO2)c2c1oc1ccc(C(F)(F)F)cc21", "UniProtKB P11309", "class 0"],
  ["C[C@]1(O)CC[C@H](CCN2CCNC(=O)c3oc4ccc(C(F)(F)F)cc4c32)CC1", "UniProtKB P11309", "class 0"],
  ["O=C1NCCN(CCC2CCCCC2)c2c1oc1ccc(C(F)(F)F)cc21", "UniProtKB P11309", "class 0"],
  ["O=C1NCCN(CC(F)(F)C2CC(CO)CCO2)c2c1oc1ccc(C(F)(F)F)cc21 (stereo not shown)", "UniProtKB P11309", "class 1"],
  ["CC1(O)CCOC(C(F)(F)CN2CCNC(=O)c3oc4ccc(C(F)(F)F)cc4c32)C1 (stereo not shown) [Example 58]", "UniProtKB P11309", "class 1"],
  ["O=C1NC2(CC2)CN(CC[C@H]2CO[C@@H](CF)CO2)c2c1oc1ccc(C(F)(F)F)cc21", "UniProtKB P11309", "class 0"],
  ["O=C1NCCN(CC[C@@H]2CO[C@@H](CO)CO2)c2c1oc1ccc(C(F)(F)F)cc21", "UniProtKB P11309", "class 0"],
  ["O=C1NCCN(CC[C@H]2CC[C@](O)(C(F)(F)F)CC2)c2c1oc1ccc(C(F)(F)F)cc21", "UniProtKB P11309", "class 0"],
  ["O=C1NCCN(CCC2CC3CCC(C2)O3)c2c1oc1ccc(C(F)(F)F)cc21 (stereo not shown)", "UniProtKB P11309", "class 0"],
  ["CS(=O)(=O)CC1(O)CCC(CCN2CCNC(=O)c3oc4ccc(C(F)(F)F)cc4c32)CC1 (stereo not shown)", "UniProtKB P11309", "class 0"],
  ["CNC(=O)C1CCC(CCN2CCNC(=O)c3oc4ccc(C(F)(F)F)cc4c32)CC1 (stereo not shown)", "UniProtKB P11309", "class 0"],
  ["O=C1NCCN(CCC2CC3(CC(CO)C3)C2)c2c1oc1ccc(C(F)(F)F)cc21 (racemic)", "UniProtKB P11309", "class 0"],
  ["C[C@@H]1CO[C@H](CCN2CCNC(=O)c3oc4ccc(C(F)(F)F)cc4c32)CO1", "UniProtKB P11309", "class 0"]
]}

====

Biological target: human Pim-1 (Homo sapiens (Human))
Assay: biochemical
Format: biochemical
Conditions: read-out: hPim1 Ki; Ki converted from IC50; purified human Pim-1, Pim2tide substrate, ADP-Glo
Method: The human Pim-1 inhibitory activity of the test compounds was evaluated as follows. (1) Purification of Human Pim-1 […] The protein concentration of the human Pim-1 purified fraction was measured with Pierce 660 nm Protein Assay Reagent (Thermo Fisher Scientific, model number 22660). […] The His-Tag-added human Pim-1 was detected by Western blotting using a mouse anti-His monoclonal antibody (WAKO, model number 011-23091). […]
REPORTED_ENDPOINT: Ki (nM)

{"columns": ["COMPOUND", "MEASUREMENT_UNITS", "ASSAY_VALUE"],
 "data": [
  ["O=C1NCCN(CCC2CCC(O)(CO)CC2)c2c1oc1ccc(C(F)(F)F)cc21 (stereo not shown) [Example 89]", "nM", 0.0329]
]}

====

In this section we review reported Ki values for a set of compounds.
Target: human Pim-1 (Homo sapiens (Human))
Test: biochemical
Assay type: biochemical
Conditions: Ki converted from IC50; purified human Pim-1, Pim2tide substrate, ADP-Glo; read-out: hPim1 Ki
REPORTED_ENDPOINT: Ki (nM)

{"columns": ["COMPOUND", "ASSAY_SYSTEM", "ASSAY_VALUE"],
 "data": [
  ["O=C1NCCN(CC(F)(F)C2CCOCC2)c2c1oc1ccc(C(F)(F)F)cc21", "human Pim-1 (Homo sapiens (Human))", 0.12],
  ["O=C1NCCN(CC(F)(F)[C@@H]2CO[C@H](CO)CO2)c2c1oc1ccc(C(F)(F)F)cc21", "human Pim-1 (Homo sapiens (Human))", 0.227],
  ["CN1CCN(CC(F)(F)C2CC(O)(CO)CCO2)c2c(oc3ccc(C(F)(F)F)cc23)C1=O (centres unmarked)", "human Pim-1 (Homo sapiens (Human))", 0.33],
  ["O=C1NCCN(CC(F)(F)[C@H]2CO[C@@H](CO)CO2)c2c1oc1ccc(C(F)(F)F)cc21", "human Pim-1 (Homo sapiens (Human))", 0.0283],
  ["COCC1(O)CCC(CCN2CCNC(=O)c3oc4ccc(C(F)(F)F)cc4c32)CC1 (centres unmarked)", "human Pim-1 (Homo sapiens (Human))", 1.03],
  ["O=C1NCCN(CCC2CCS(=O)(=O)CC2)c2c1oc1ccc(C(F)(F)F)cc21", "human Pim-1 (Homo sapiens (Human))", 1.97],
  ["CC1COC(CCN2CCNC(=O)c3oc4ccc(C(F)(F)F)cc4c32)CC1O (centres unmarked)", "human Pim-1 (Homo sapiens (Human))", 0.606],
  ["O=C1NCCN(CC2(F)COC2)c2c1oc1ccc(C(F)(F)F)cc21", "human Pim-1 (Homo sapiens (Human))", 10.9]
]}
